- Assayed Target: Epidermal growth factor receptor (Homo sapiens)
- Protocol: Inhibition of human EGFR in presence of 1 uM ATP
pIC50: −log10 of the molar value.
Recorded Metric: pIC50

Known results for compounds:
| Smiles Notation | pIC50 |
| --- | --- |
| CCOc1cc2ncnc(NC3=CC(=O)C(OCc4ccccc4)=CC3=O)c2cc1NC(=O)/C=C/CN(C)C | 7.73 |
| CCOc1cc2ncnc(NC3=CC(=O)C(OCc4cccc(C)c4)=CC3=O)c2cc1NC(=O)/C=C/CN(C)C | 7.60 |
| CCOc1cc2ncnc(NC3=CC(=O)C(OCc4cccc(Cl)c4)=CC3=O)c2cc1NC(=O)/C=C/CN(C)C | 7.91 |
| CCOc1cc2ncnc(NC3=CC(=O)C(OCc4ccccn4)=CC3=O)c2cc1NC(=O)/C=C/CN(C)C | 7.04 |
| CCOc1cc2ncnc(NC3=CC(=O)C(OC(CF)CF)=CC3=O)c2cc1NC(=O)/C=C/CN(C)C | 6.55 |
| CCOc1cc2ncnc(NC3=CC(=O)C(OCc4ccc(F)c(F)c4)=CC3=O)c2cc1NC(=O)/C=C/CN(C)C | 6.78 |
| CCOc1cc2ncnc(NC3=CC(=O)C(OCc4cccc(F)c4)=CC3=O)c2cc1NC(=O)/C=C/CN(C)C | 8.39 |
| COCCOc1cc2ncnc(NC3=CC(=O)C(OCc4cccc(OC)c4)=CC3=O)c2cc1OC | 5.11 |
| CCOc1cc2ncnc(NC3=CC(=O)C(OCc4cccc(OC)c4)=CC3=O)c2cc1NC(=O)/C=C/CN(C)C | 6.97 |

a. CCOc1cc2ncnc(NC3=CC(=O)C(OCc4cccs4)=CC3=O)c2cc1NC(=O)/C=C/CN(C)C
b. CCOc1cc2ncnc(NC3=CC(=O)C(OC)=CC3=O)c2cc1NC(=O)/C=C/CN(C)C
Q: Please state the entry with greater pIC50 among a and b . Lab note: record the label of whichever item you select.
Result: a
(a: 7.32, b: 6.10)

---

- Assayed Target: Vascular endothelial growth factor receptor 2 (Homo sapiens)
- Protocol: Inhibition of human VEGFR2 in presence of 1 uM ATP
pIC50: −log10 of the molar value.
Recorded Metric: pIC50

| Smiles Notation | Experimental Value |
| --- | --- |
| CCOc1cc2ncnc(NC3=CC(=O)C(OC(CF)CF)=CC3=O)c2cc1NC(=O)/C=C/CN(C)C | 6.96 |
| COCCOc1cc2ncnc(NC3=CC(=O)C(OCc4ccccc4)=CC3=O)c2cc1OC | 7.27 |
| CCOc1cc2ncnc(NC3=CC(=O)C(OCc4cccc(F)c4)=CC3=O)c2cc1NC(=O)/C=C/CN(C)C | 6.95 |
| CCOc1cc2ncc(C#N)c(Nc3ccc(F)c(Cl)c3)c2cc1NC(=O)/C=C/CN(C)C | 5.50 |
| COCCOc1cc2ncnc(NC3=CC(=O)C(OCc4cccc(OC)c4)=CC3=O)c2cc1OC | 7.30 |
| CCOc1cc2ncnc(NC3=CC(=O)C(OCc4cccc(C)c4)=CC3=O)c2cc1NC(=O)/C=C/CN(C)C | 6.72 |
| CCOc1cc2ncnc(NC3=CC(=O)C(OCc4ccccn4)=CC3=O)c2cc1NC(=O)/C=C/CN(C)C | 6.87 |
| CCOc1cc2ncnc(NC3=CC(=O)C(OCc4cccc(OC)c4)=CC3=O)c2cc1NC(=O)/C=C/CN(C)C | 6.43 |

P. CCOc1cc2ncnc(NC3=CC(=O)C(OCc4ccc(F)c(F)c4)=CC3=O)c2cc1NC(=O)/C=C/CN(C)C
Q. CCOc1cc2ncnc(NC3=CC(=O)C(OC)=CC3=O)c2cc1NC(=O)/C=C/CN(C)C
R. CCOc1cc2ncc(C#N)c(Nc3ccc(OCc4ccccn4)c(Cl)c3)c2cc1NC(=O)/C=C/CN(C)C
S. COc1cc2ncnc(Nc3cccc(Br)c3)c2cc1OC
Q: Which order do these items take when sorted by rising pIC50? List them. # list labels per requested ordering
Result: S, R, Q, P

---

- Assayed Target: Vascular endothelial growth factor receptor 2 (Homo sapiens)
- Protocol: Inhibition of human VEGFR2 in presence of 1 uM ATP
Recorded Metric: IC50 (nM)

Below are worked cases with known answers.
| Smiles Notation | IC50 / nM |
| --- | --- |
| CCOc1cc2ncnc(NC3=CC(=O)C(OCc4ccccc4)=CC3=O)c2cc1NC(=O)/C=C/CN(C)C | 102 |
| CCOc1cc2ncnc(NC3=CC(=O)C(OCc4cccs4)=CC3=O)c2cc1NC(=O)/C=C/CN(C)C | 76.2 |

1. CCOc1cc2ncnc(NC3=CC(=O)C(OCc4cccc(Cl)c4)=CC3=O)c2cc1NC(=O)/C=C/CN(C)C
2. COCCOc1cc2ncnc(NC3=CC(=O)C(OCc4cccc(F)c4)=CC3=O)c2cc1OC
Q: Between 1 and 2 , which one shows the larger IC50 value? Answer format: the label of the selected item.
Result: 1

---

- Assayed Target: Vascular endothelial growth factor receptor 2 (Homo sapiens, UniProt P35968)
- Sequence (P35968 whole entry): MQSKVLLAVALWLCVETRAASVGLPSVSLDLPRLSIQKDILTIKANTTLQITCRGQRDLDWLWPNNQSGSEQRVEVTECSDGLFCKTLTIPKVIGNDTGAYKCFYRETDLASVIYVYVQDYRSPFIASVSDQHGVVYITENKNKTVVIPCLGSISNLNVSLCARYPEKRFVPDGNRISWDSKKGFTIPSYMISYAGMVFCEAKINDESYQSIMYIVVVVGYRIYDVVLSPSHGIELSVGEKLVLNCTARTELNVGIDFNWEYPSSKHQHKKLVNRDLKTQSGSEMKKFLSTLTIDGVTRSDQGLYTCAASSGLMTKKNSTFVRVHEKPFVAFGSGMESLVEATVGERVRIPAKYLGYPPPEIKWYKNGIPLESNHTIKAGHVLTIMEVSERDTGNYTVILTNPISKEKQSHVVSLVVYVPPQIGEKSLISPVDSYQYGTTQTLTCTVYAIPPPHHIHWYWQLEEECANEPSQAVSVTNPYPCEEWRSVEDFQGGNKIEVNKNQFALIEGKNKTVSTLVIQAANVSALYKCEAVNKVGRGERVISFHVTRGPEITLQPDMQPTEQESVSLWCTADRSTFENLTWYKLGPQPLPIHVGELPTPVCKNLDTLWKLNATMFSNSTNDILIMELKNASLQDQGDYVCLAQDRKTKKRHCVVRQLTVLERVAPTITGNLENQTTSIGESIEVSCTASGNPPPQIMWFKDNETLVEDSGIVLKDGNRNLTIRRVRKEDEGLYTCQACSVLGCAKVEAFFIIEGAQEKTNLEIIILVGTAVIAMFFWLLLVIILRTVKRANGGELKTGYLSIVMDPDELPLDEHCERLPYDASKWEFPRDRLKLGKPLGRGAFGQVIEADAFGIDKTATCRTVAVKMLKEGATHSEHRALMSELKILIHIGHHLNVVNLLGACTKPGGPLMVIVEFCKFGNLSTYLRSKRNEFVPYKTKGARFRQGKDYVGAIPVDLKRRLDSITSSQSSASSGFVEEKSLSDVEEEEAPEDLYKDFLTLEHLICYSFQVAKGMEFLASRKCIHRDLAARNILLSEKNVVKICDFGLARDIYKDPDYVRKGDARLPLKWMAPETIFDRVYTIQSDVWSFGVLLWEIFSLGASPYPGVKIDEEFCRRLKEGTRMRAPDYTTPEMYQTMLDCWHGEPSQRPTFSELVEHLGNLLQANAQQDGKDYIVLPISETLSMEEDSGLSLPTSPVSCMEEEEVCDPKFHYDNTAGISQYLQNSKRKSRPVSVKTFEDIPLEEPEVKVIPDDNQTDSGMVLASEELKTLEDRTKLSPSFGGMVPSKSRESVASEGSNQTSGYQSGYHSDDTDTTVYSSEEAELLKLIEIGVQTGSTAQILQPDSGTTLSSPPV
- Protocol: Inhibition of human VEGFR2 in presence of 1 mM ATP
pIC50: −log10 of the molar value.
Recorded Metric: pIC50

// known answers, use as guide
| Smiles Notation | Assayed Target | pIC50 |
| --- | --- | --- |
| CCOc1cc2ncnc(NC3=CC(=O)C(OC)=CC3=O)c2cc1NC(=O)/C=C/CN(C)C | Vascular endothelial growth factor receptor 2 (Homo sapiens, UniProt P35968) | 5.85 |
| CCOc1cc2ncnc(NC3=CC(=O)C(OCc4cccc(F)c4)=CC3=O)c2cc1NC(=O)/C=C/CN(C)C | Vascular endothelial growth factor receptor 2 (Homo sapiens, UniProt P35968) | 6.46 |
| CCOc1cc2ncnc(NC3=CC(=O)C(OCc4ccc(F)c(F)c4)=CC3=O)c2cc1NC(=O)/C=C/CN(C)C | Vascular endothelial growth factor receptor 2 (Homo sapiens, UniProt P35968) | 6.26 |
| COCCOc1cc2ncnc(NC3=CC(=O)C(OCc4cccc(OC)c4)=CC3=O)c2cc1OC | Vascular endothelial growth factor receptor 2 (Homo sapiens, UniProt P35968) | 6.60 |
| CCOc1cc2ncnc(NC3=CC(=O)C(OCc4cccc(C)c4)=CC3=O)c2cc1NC(=O)/C=C/CN(C)C | Vascular endothelial growth factor receptor 2 (Homo sapiens, UniProt P35968) | 6.21 |
| COCCOc1cc2ncnc(NC3=CC(=O)C(OCc4ccccc4)=CC3=O)c2cc1OC | Vascular endothelial growth factor receptor 2 (Homo sapiens, UniProt P35968) | 6.85 |
| COCCOc1cc2ncnc(NC3=CC(=O)C(OCc4cccc(F)c4)=CC3=O)c2cc1OC | Vascular endothelial growth factor receptor 2 (Homo sapiens, UniProt P35968) | 6.73 |
| CCOc1cc2ncnc(NC3=CC(=O)C(OCc4ccccc4)=CC3=O)c2cc1NC(=O)/C=C/CN(C)C | Vascular endothelial growth factor receptor 2 (Homo sapiens, UniProt P35968) | 6.11 |

I. CCOc1cc2ncnc(NC3=CC(=O)C(OC(CF)CF)=CC3=O)c2cc1NC(=O)/C=C/CN(C)C
II. CCOc1cc2ncnc(NC3=CC(=O)C(OCc4ccccn4)=CC3=O)c2cc1NC(=O)/C=C/CN(C)C
III. CCOc1cc2ncnc(NC3=CC(=O)C(OCc4cccc(Cl)c4)=CC3=O)c2cc1NC(=O)/C=C/CN(C)C
Q: # rank by pIC50, ascending (min first) # list labels per requested ordering
Result: II, I, III

A. CCOc1cc2ncnc(NC3=CC(=O)C(OCc4cccc(OC)c4)=CC3=O)c2cc1NC(=O)/C=C/CN(C)C
B. CCOc1cc2ncnc(NC3=CC(=O)C(OCc4cccs4)=CC3=O)c2cc1NC(=O)/C=C/CN(C)C
Q: Which has the higher pIC50, A or B ? Respond with the label that goes with your answer.
Result: B
(B: 6.53, A: 5.89)

---

- Assayed Target: Epidermal growth factor receptor (Homo sapiens, UniProt P00533)
- Sequence (P00533 whole entry): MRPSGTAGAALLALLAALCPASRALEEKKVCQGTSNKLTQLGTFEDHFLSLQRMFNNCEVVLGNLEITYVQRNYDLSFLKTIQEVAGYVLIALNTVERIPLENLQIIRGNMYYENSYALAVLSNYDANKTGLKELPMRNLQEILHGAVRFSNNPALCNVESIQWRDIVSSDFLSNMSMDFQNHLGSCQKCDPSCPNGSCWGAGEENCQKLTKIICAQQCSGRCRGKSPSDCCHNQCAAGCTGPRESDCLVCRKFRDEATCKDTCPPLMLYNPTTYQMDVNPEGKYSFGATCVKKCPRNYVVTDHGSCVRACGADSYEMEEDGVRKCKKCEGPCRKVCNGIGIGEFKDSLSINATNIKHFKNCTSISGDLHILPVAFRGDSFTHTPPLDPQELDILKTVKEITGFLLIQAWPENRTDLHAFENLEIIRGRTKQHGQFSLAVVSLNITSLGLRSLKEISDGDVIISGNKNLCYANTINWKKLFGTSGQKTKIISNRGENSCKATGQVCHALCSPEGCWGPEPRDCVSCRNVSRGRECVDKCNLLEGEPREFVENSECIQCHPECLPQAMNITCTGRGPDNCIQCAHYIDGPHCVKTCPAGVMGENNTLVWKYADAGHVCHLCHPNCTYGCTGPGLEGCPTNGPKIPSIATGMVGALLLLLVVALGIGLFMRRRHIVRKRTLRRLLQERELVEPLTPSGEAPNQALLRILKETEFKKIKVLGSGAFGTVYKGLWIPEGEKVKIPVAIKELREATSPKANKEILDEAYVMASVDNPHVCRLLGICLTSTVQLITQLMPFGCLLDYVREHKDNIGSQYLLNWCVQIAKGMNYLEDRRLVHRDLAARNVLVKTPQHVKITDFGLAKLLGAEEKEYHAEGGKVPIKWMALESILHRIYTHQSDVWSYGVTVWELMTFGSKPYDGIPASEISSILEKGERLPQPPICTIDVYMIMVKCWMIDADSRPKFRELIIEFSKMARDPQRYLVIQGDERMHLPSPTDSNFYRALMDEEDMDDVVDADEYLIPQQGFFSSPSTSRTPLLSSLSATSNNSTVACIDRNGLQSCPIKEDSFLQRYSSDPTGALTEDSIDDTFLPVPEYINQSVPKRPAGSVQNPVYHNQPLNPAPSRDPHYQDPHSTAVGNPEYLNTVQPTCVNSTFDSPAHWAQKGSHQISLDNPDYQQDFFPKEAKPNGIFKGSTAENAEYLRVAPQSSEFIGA
- Protocol: Inhibition of human EGFR in presence of 1 mM ATP
pIC50: −log10 of the molar value.
Recorded Metric: pIC50

Worked set:
| Smiles Notation | Assayed Target | pIC50 |
| --- | --- | --- |
| CCOc1cc2ncnc(NC3=CC(=O)C(OCc4ccc(F)c(F)c4)=CC3=O)c2cc1NC(=O)/C=C/CN(C)C | Epidermal growth factor receptor (Homo sapiens, UniProt P00533) | 6.05 |
| CN(C)C/C=C/C(=O)Nc1ccc2ncnc(Nc3ccc(Br)cc3F)c2c1 | Epidermal growth factor receptor (Homo sapiens, UniProt P00533) | 6.15 |
| CCOc1cc2ncnc(NC3=CC(=O)C(OCc4ccccn4)=CC3=O)c2cc1NC(=O)/C=C/CN(C)C | Epidermal growth factor receptor (Homo sapiens, UniProt P00533) | 6.10 |
| CCOc1cc2ncnc(NC3=CC(=O)C(OC(CF)CF)=CC3=O)c2cc1NC(=O)/C=C/CN(C)C | Epidermal growth factor receptor (Homo sapiens, UniProt P00533) | 5.68 |

a. CCOc1cc2ncnc(NC3=CC(=O)C(OCc4cccs4)=CC3=O)c2cc1NC(=O)/C=C/CN(C)C
b. CCOc1cc2ncnc(NC3=CC(=O)C(OCc4cccc(C)c4)=CC3=O)c2cc1NC(=O)/C=C/CN(C)C
c. CCOc1cc2ncnc(NC3=CC(=O)C(OCc4cccc(Cl)c4)=CC3=O)c2cc1NC(=O)/C=C/CN(C)C
Q: Rank descending by pIC50. When ranking, write the labels in the order the request describes.
Result: c, b, a

a. CCOc1cc2ncnc(NC3=CC(=O)C(OCc4cccc(OC)c4)=CC3=O)c2cc1NC(=O)/C=C/CN(C)C
b. CCOc1cc2ncnc(NC3=CC(=O)C(OCc4cccc(F)c4)=CC3=O)c2cc1NC(=O)/C=C/CN(C)C
c. CCOc1cc2ncnc(NC3=CC(=O)C(OCc4ccccc4)=CC3=O)c2cc1NC(=O)/C=C/CN(C)C
Q: Thanks in advance: please rank these 3 entries by pIC50, highest to lowest. Lab note: final answer is the ordered label list.
Result: b, c, a
